Values compiled from paper PMC10434765.

measured target: jack bean urease (Canavalia ensiformis)
Sequence (P07374 whole entry, looked up): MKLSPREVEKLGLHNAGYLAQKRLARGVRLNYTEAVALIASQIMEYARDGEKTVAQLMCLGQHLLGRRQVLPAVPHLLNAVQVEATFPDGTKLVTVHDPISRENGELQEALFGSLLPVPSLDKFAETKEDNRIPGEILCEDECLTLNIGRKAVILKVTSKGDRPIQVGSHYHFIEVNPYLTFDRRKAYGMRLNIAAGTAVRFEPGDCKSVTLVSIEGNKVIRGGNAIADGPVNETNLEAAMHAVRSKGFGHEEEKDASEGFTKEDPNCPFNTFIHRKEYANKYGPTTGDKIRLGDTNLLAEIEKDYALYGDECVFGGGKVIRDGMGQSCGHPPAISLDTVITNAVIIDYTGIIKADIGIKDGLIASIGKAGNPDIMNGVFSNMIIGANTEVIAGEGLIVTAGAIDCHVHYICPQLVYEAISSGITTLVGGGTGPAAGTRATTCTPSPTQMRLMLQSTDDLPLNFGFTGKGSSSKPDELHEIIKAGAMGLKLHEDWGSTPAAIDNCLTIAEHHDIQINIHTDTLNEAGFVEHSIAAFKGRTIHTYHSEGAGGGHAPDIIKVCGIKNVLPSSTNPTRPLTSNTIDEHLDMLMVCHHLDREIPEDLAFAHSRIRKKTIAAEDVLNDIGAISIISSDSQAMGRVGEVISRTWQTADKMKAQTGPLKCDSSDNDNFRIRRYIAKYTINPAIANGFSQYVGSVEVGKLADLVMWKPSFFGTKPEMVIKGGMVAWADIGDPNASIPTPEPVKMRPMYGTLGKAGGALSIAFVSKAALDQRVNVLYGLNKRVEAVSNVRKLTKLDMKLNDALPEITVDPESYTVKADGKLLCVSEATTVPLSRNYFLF
setup conditions: value in parentheses beside IC50, n = 3; concentration not given
Think of 90% as a floor: if % inhibition of urease stands on it or above, it is Criterion met; beneath it, Criterion not met.

Study these solved cases before continuing.
>>> cat("COc1ccc2cc([C@H](C)C(=O)Nc3ccc(S(=O)(=O)Nc4onc(C)c4C)cc3)ccc2c1 [Conjugate 4]")
"Criterion met"
>>> cat("COc1ccc2cc([C@H](C)C(=O)Nc3ccc(S(=O)(=O)Nc4nccc(C)n4)cc3)ccc2c1 [Conjugate 7]")
"Criterion not met"

Lab note: next molecule to report on.
Input line: % inhibition of urease >= 90% for COc1ccc2cc([C@H](C)C(=O)Nc3ccc(S(=O)(=O)NC(C)=O)cc3)ccc2c1 [Conjugate 9] ?
Output line: Criterion not met
